- System: MALME-3M melanoma
- assay text: NCI-60 one-dose screen, 48 h (100 = growth as untreated, 0 = no growth, -100 = all killed)
- conditions used: 10 µM unless noted
The panel holds about 83,000 compounds, 20% with a hit somewhere; the sample as a whole holds those more often. Active and inactive are the calls of the source. The calls were made as follows: active = growth percent below 10; inactive = the rest.
reported endpoint: growth

COC(=O)[C@]12CC[C@@H](C)[C@H](C)[C@@H]1C1=CC[C@@H]3[C@@]4(C)C(c5cnco5)=C[C@@](C)(CO)C4=CC[C@@]3(C)[C@]1(C)CC2 : 87.6% (inactive)
CCCS(=O)(=O)Nc1ccc(F)c(C(=O)c2c[nH]c3ncc(-c4ccc(Cl)cc4)cc23)c1F : 11.2% (inactive)
N#CC1(C#N)C(c2cccs2)NC(c2cccs2)C1(C#N)C#N (stereo not drawn) : 99.2% (inactive)
CCCCCCC1(/C=N/NC(N)=O)NC(=O)NC1=O (stereo not drawn) : 103% (inactive)
Nc1nc(=S)c2ncn(C3OC(COC(=O)c4ccc(Cl)cc4)C(OC(=O)c4ccc(Cl)cc4)C3OC(=O)c3ccc(Cl)cc3)c2[nH]1 (stereo not drawn) : 102% (inactive)

Please find the next compound below.
Item "COc1cc(-c2cc(-c3ccc(Nc4ccnc5cc(Cl)ccc45)cc3)nc(N3CCOCC3)n2)cc(OC)c1OC" has what recorded growth?
-22.4% (active)

* * *

- Tested on: KM12 colon
- assay text: NCI-60 one-dose screen, 48 h (100 = growth as untreated, 0 = no growth, -100 = all killed)
- conditions used: 10 µM unless noted
The panel holds about 83,000 compounds, 20% with a hit somewhere; the sample as a whole holds those more often.
Classes based on growth: category 1: < 10%; category 2: ≥ 10% and < 50%; category 3: ≥ 50%

# count of solved cases: 5
O=C(Nc1ccc(N=Nc2ccccc2)cc1)c1cccc2ccccc12 : category 2
CC(=O)CC1CCCC1c1ccc2ccccc2c1 (stereo not drawn) : category 3
COC(=O)c1ccc2c(C(=Nc3ccc(N(C)C(=O)CN4CCN(C)CC4)cc3)c3ccccc3)c(O)[nH]c2c1 : category 1
O=C1NC(=O)C(c2cnc3ccccn23)=C1c1cn2c3c(cc(F)cc13)CN(C(=O)N1CCCCC1)CC2 : category 2
C=C1C(=O)O[C@H]2[C@H]1CC/C(C=Nc1c(N)cc(C(F)(F)F)cc1C(F)(F)F)=C\CC[C@@]1(C)O[C@@H]21 : category 2

Class for "Oc1ccc(C(c2ccc(O)cc2)C(Cl)(Cl)Cl)cc1" ?
category 3

Class for CO[C@H](C(=O)N[C@@H](CCCCNC(=O)OCc1ccccc1)C(=O)OC(C)(C)C)[C@@H]1Cc2cc3cc(OC4CC(OC5CC(O)C(O)C(C)O5)C(O)C(C)O4)c(C)c(O)c3c(O)c2C(=O)[C@H]1OC1CC(OC2CC(OC3CC(C)(O)C(O)C(C)O3)C(O)C(C)O2)C(O)C(C)O1 (stereo partly drawn) ?
category 1

Class for "FC(F)(F)c1ccc(CNc2ccc(Cc3c[nH]c4ncc(Cl)cc34)cn2)cn1" ?
category 1

Class for "C/C(=C(/c1ccc(Cl)cc1)c1ccc(OCCN2CCCC2)cc1)c1ccccc1" ?
category 2

* * *

- Test system: HCT-116 colon
- assay text: NCI-60 one-dose screen, 48 h
- conditions used: 10 µM unless noted
Compounds without any hit were thinned out: in the full panel of roughly 83,000, 20% have a hit. Calls of active or inactive are those of the source. The calls were made as follows: active = growth percent below 10; inactive = the rest.
Respond using exactly one of the listed classes: t for active, f for inactive

CC(C)[C@@H]1CC[C@@H]2[C@@H]1[C@H](OC(=O)/C=C/c1ccccc1)[C@]1(C(C)C)C[C@@H](OC(=O)CO)[C@@]2(C)O1 : f
C=CC(=O)Nc1cc(Nc2nccc(-c3cn(C)c4ccccc34)n2)c(OC)cc1N(C)CCN(C)C : t
COc1cnc2c(c1)C(=O)c1c-2n(CCCN2CCC(O)CC2)c(=O)c2cc(Cl)ccc12 : t
CC(C)[C@@H](C)/C=C/[C@@H](C)[C@H]1CCC2=C3C=CC4=CC(=O)CC[C@]4(C)[C@H]3CC[C@@]21C : f
CC1CCC(n2cnc3c(Cl)ncnc32)O1 (centres undefined) : f

So what was the verdict on "Cc1cc(C2(c3ccc(O)c(C)c3)OS(=O)(=O)c3ccccc32)ccc1O" in this test?
f

So what was the verdict on "C#Cc1cccc(Nc2ncnc3cc4c(cc23)OCCOCCOCCO4)c1" in this test?
f

So what was the verdict on "CCOc1ccc(N=C(C)Nc2ccc(OCC)cc2)cc1" in this test?
f

So what was the verdict on "Cn1nccc1Nc1nccc(-c2ccn([C@H](CO)c3ccc(Cl)c(F)c3)c(=O)c2)n1" in this test?
f
